Measured values drawn from patent US20260274853A1 for this set.

A collection of compounds and their measured IC50
- tgt: CDK2 (Homo sapiens)
- Construct: High-Throughput Measurement of Cellular Endogenous CDK2; endogenous in cells; host or cells: OVCAR3
- assay_notes: Inhibition of CDK2: phospho-Rb (S807/811) HTRF measurement in OVCAR3 cells
- Assay type: cell-based
- measurement_parameters: 24 h compound treatment, read-out: pRb (nM), IC50 in pRB(S807/811) assay

// below: answered compounds
Cn1nc(N2CCC(=O)NC2=O)c2ccc(C3CCN(CC4CCN(S(=O)(=O)N5CCC(Nc6ncc(C(F)(F)F)c(-c7cnn(CC(F)(F)F)c7)n6)CC5)C4)CC3)cc21 (centres unmarked) : < 100 nM
O=C1CCC(N2CCN(Cc3cccc(S(=O)(=O)N4CCC(Nc5ncc(C(F)(F)F)c(-c6cnn(CC(F)(F)F)c6)n5)CC4)c3)CC2)C(=O)N1 (centres unmarked) : 100 to 500 nM
O=C1CCC(Nc2ccc(C3CCN(Cc4cccc(S(=O)(=O)N5CCC(Nc6ncc(C(F)(F)F)c(-c7cnn(CC(F)(F)F)c7)n6)CC5)c4)CC3)cc2)C(=O)N1 (centres unmarked) : < 100 nM
Cn1nc(N2CCC(=O)NC2=O)c2ccc(C3CCN(Cc4cccc(S(=O)(=O)N5CC[C@@H](Nc6ncc(C(F)(F)F)c(-c7cnn(CC(F)(F)F)c7)n6)[C@@H](F)C5)c4)CC3(F)F)cc21 (some centres unmarked) : 1000 to 10000 nM

Shifting focus to the compound that follows.
Report its IC50 with CDK2 (Homo sapiens) as the test system: Cn1nc(N2CCC(=O)NC2=O)c2ccc(C3CCN(Cc4cccc(S(=O)(=O)N5CC[C@H](Nc6ncc(C(F)(F)F)c(-c7cnn(CC(F)(F)F)c7)n6)[C@H](F)C5)c4)CC3)cc21 (racemic)
< 100 nM

====

- tgt: CDK2 (Homo sapiens, UniProt P24941)
- Construct: High-Throughput Measurement of Cellular Endogenous CDK2; endogenous in cells; host or cells: OVCAR3
- assay_notes: Inhibition of CDK2: phospho-Rb (S807/811) HTRF measurement in OVCAR3 cells
- Format: cell-based
- measurement_parameters: 24 h compound treatment, read-out: pRb (nM), IC50 in pRB(S807/811) assay
outcome_measure: IC50

// below: answered compounds
Cn1nc(N2CCC(=O)NC2=O)c2ccc(C3CCN(Cc4cccc(S(=O)(=O)N5CC[C@H](Nc6ncc(C(F)(F)F)c(-c7cnn(CC(F)F)c7)n6)[C@H](F)C5)c4)CC3)cc21 (racemic) : < 100 nM
O=C1CCN(c2ccc(N3CCN(Cc4cccc(S(=O)(=O)N5CC[C@@H](Nc6ncc(C(F)(F)F)c(-c7cnn(CC(F)(F)F)c7)n6)[C@@H](F)C5)c4)CC3)cc2)C(=O)N1 (racemic) : 100 to 500 nM
CC(C)(O)Cn1cc(-c2nc(NC3CCN(S(=O)(=O)c4cccc(CN5CCN(c6ccc(N7CCC(=O)NC7=O)cc6)CC5)c4)CC3)ncc2C(F)(F)F)cn1 : < 100 nM

Please indicate IC50 recorded for Cn1nc(N2CCC(=O)NC2=O)c2ccc(C3CCN(Cc4cc(S(=O)(=O)N5CCC(Nc6ncc(C(F)(F)F)c(-c7cnn(CC(F)(F)F)c7)n6)CC5)ccc4F)CC3)cc21
< 100 nM

Please indicate IC50 recorded for Cn1nc(N2CCC(=O)NC2=O)c2ccc(C3CCN(CCc4cccc(S(=O)(=O)[C@H]5CC[C@H](Nc6ncc(C(F)(F)F)c(-c7cnn(CC(F)(F)F)c7)n6)CC5)c4)CC3)cc21
100 to 500 nM

Please indicate IC50 recorded for O=C1CCC(N2C(=O)c3cc(F)c(N4CCN(Cc5cccc(S(=O)(=O)N6CCC(Nc7ncc(C(F)(F)F)c(-c8cnn(CC(F)F)c8)n7)CC6)c5)CC4)cc3C2=O)C(=O)N1 (stereo not drawn)
100 to 500 nM

Please indicate IC50 recorded for Cn1c(S(=O)(=O)N2CCC(Nc3ncc(C(F)(F)F)c(-c4cnn(CC(F)(F)F)c4)n3)CC2)cnc1CN1CCN(c2cc3c(cc2F)C(=O)N(C2CCC(=O)NC2=O)C3=O)CC1 (stereo not drawn)
100 to 500 nM

Please indicate IC50 recorded for Cc1ncsc1-c1ccc([C@H](C)NC(=O)[C@@H]2C[C@@H](O)CN2C(=O)[C@@H](NC(=O)C2(F)CC2)C(C)(C)SCC2CCN(Cc3cccc(S(=O)(=O)N4CCC(Nc5ncc(C(F)(F)F)c(-c6cnn(CC(F)(F)F)c6)n5)CC4)c3)CC2)cc1
< 100 nM

Please indicate IC50 recorded for O=C1CCC(N2C(=O)c3cc(F)c(N4CCN(Cc5cccc(S(=O)(=O)N6CCC(Nc7ncc(C(F)(F)F)c(-c8cnn(CC(F)(F)F)c8)n7)CC6)c5)CC4)cc3C2=O)C(=O)N1 (stereo not drawn)
100 to 500 nM

====

- tgt: CDK2 (Homo sapiens)
- Construct: High-Throughput Measurement of Cellular Endogenous CDK2; endogenous in cells; host or cells: OVCAR3
- assay_notes: Inhibition of CDK2: phospho-Rb (S807/811) HTRF measurement in OVCAR3 cells
- Format: cell-based
- measurement_parameters: 24 h compound treatment, read-out: pRb (nM), IC50 in pRB(S807/811) assay
outcome_measure: IC50

// below: answered molecules
O=C1CCC(N2C(=O)c3cc(F)c(N4CCN(Cc5cccc(S(=O)(=O)N6CCC(Nc7nccc(-c8cnn(CC(F)(F)F)c8)n7)CC6)c5)CC4)cc3C2=O)C(=O)N1 (stereo not shown) [Example 17] : 1000 to 10000 nM
O=C1CCN(c2ccc(N3CCN(Cc4cccc(S(=O)(=O)N5CCC(Nc6ncc(C(F)(F)F)c(-c7cnn(CC(F)(F)F)c7)n6)CC5)c4)CC3)cc2)C(=O)N1 [Example 25] : < 100 nM
O=C1CCC(c2ccc(N3CCN(Cc4cccc(S(=O)(=O)N5CCC(Nc6ncc(C(F)(F)F)c(-c7cnn(CC(F)(F)F)c7)n6)[C@H](F)C5)c4)CC3)cc2)C(=O)N1 (mixture of isomers) [Example 19] : < 100 nM

Please indicate IC50 recorded for Cn1nc(N2CCC(=O)NC2=O)c2ccc(C3CCN(Cc4cccc(S(=O)(=O)[C@H]5CC[C@H](Nc6ncc(C(F)(F)F)c(-c7cnn(CC(F)(F)F)c7)n6)CC5)c4)CC3)cc21 [Example 74]
< 100 nM

Please indicate IC50 recorded for Cn1nc(N2CCC(=O)NC2=O)c2ccc(N3CCC(CN4CCC(S(=O)(=O)N5CCC(Nc6ncc(C(F)(F)F)c(-c7cnn(CC(F)(F)F)c7)n6)CC5)CC4)CC3)cc21 [Example 92]
< 100 nM

Please indicate IC50 recorded for Cn1nc(N2CCC(=O)NC2=O)c2ccc(C3CCN(C(c4cccc(S(=O)(=O)N5CCC(Nc6ncc(C(F)(F)F)c(-c7cnn(CC(F)(F)F)c7)n6)CC5)c4)C(F)(F)F)CC3)cc21 (stereo not shown) [Example 91]
100 to 500 nM

Please indicate IC50 recorded for CN1CCC(n2cc(-c3nc(NC4CCN(S(=O)(=O)c5cccc(CN6CCC(c7ccc8c(N9CCC(=O)NC9=O)nn(C)c8c7)CC6)c5)CC4)ncc3C(F)(F)F)cn2)CC1 [Example 79]
< 100 nM

====

A collection of compounds and their measured IC50
- tgt: CDK2 (Homo sapiens)
- Construct: High-Throughput Measurement of Cellular Endogenous CDK2; endogenous in cells; host or cells: OVCAR3
- assay_notes: Inhibition of CDK2: phospho-Rb (S807/811) HTRF measurement in OVCAR3 cells
- Type: cell-based
- measurement_parameters: 24 h compound treatment, read-out: pRb (nM), IC50 in pRB(S807/811) assay

Cn1cc(-c2nc(NC3CCN(S(=O)(=O)c4cccc(CN5CCN(c6cc7c(cc6F)C(=O)N(C6CCC(=O)NC6=O)C7=O)CC5)c4)CC3)ncc2C(F)(F)F)cn1 (stereo not drawn) : < 100 nM

Please indicate IC50 recorded for O=C1CCN(c2ccc(N3CCN(Cc4cccc(S(=O)(=O)N5CCC(Nc6ncc(C(F)(F)F)c(-c7cnn(CC(F)(F)F)c7)n6)CC5)c4)CC3)c(C(F)(F)F)c2)C(=O)N1
1000 to 10000 nM

Please indicate IC50 recorded for O=C1CCC(c2ccc(N3CCN(Cc4cccc(S(=O)(=O)N5CCC(Nc6ncc(C(F)(F)F)c(-c7cnn(CC(F)(F)F)c7)n6)CC5)c4)CC3)cc2)C(=O)N1 (stereo not drawn)
< 100 nM

Please indicate IC50 recorded for O=C1CCC(N2Cc3cc(C4CN(Cc5cccc(S(=O)(=O)N6CCC(Nc7ncc(C(F)(F)F)c(-c8cnn(CC(F)(F)F)c8)n7)CC6)c5)C4)ccc3C2=O)C(=O)N1 (stereo not drawn)
< 100 nM

====

A collection of compounds and their measured IC50
- tgt: CDK2 (Homo sapiens, UniProt P24941)
- Construct: High-Throughput Measurement of Cellular Endogenous CDK2; endogenous in cells; host or cells: OVCAR3
- assay_notes: Inhibition of CDK2: phospho-Rb (S807/811) HTRF measurement in OVCAR3 cells
- Type: cell-based
- measurement_parameters: 24 h compound treatment, read-out: pRb (nM), IC50 in pRB(S807/811) assay

Please indicate IC50 recorded for O=C1CCC(N2CC3CCC(C2)N3Cc2cccc(S(=O)(=O)N3CCC(Nc4ncc(C(F)(F)F)c(-c5cnn(CC(F)(F)F)c5)n4)CC3)c2)C(=O)N1 (stereo not drawn) [Example 65]
< 100 nM

Please indicate IC50 recorded for Cn1nc(N2CCC(=O)NC2=O)c2ccc(C3CCN(Cc4cc(S(=O)(=O)N5CCC(Nc6ncc(C(F)(F)F)c(-c7cnn(CC(F)(F)F)c7)n6)CC5)ccc4C(F)(F)F)CC3(F)F)cc21 (stereo not drawn) [Example 55]
1000 to 10000 nM

Please indicate IC50 recorded for O=C1CCN(c2ccc(N3CCN(Cc4cccc(S(=O)(=O)N5CCC(Nc6ncc(C(F)(F)F)c(-c7cnn(CC(F)(F)F)c7)n6)CC5)c4)CC3)nc2)C(=O)N1 [Example 41]
< 100 nM
